System: 361931-004-R-J1-PDC multicell spheroid viability;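 note: spheroids exposed to agents for seven days before readout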
Procedure Text: Anticancer human tumor 361931-004-R-J1-PDC patient-derived colon adenocarcinoma cell line growth inhibition [PI3K]
Cond: second compound 3.16 µM; first compound 0.001 µM; active compounds read low
Readout Name: viability, T/C (%)
Numbers only, in %.

Observe how each entry below is paired with its result.
{"Molecule": "CC(C)n1nc(-c2ccc3oc(N)nc3c2)c2c(N)ncnc21 + Cc1nc(NC(=O)N2CCCC2C(N)=O)sc1-c1ccnc(C(C)(C)C(F)(F)F)c1", "Result": 85.2}
{"Molecule": "CC(C)n1nc(-c2ccc3oc(N)nc3c2)c2c(N)ncnc21 + CC(Nc1ncnc2nc[nH]c12)c1cc2cccc(Cl)c2c(=O)n1-c1ccccc1", "Result": 106}
{"Molecule": "Cn1ncnc1[C@H]1c2n[nH]c(=O)c3cc(F)cc(c23)N[C@@H]1c1ccc(F)cc1 + CC(Nc1ncnc2nc[nH]c12)c1cc2cccc(Cl)c2c(=O)n1-c1ccccc1", "Result": 111}
{"Molecule": "CC(=O)c1c(C)c2cnc(Nc3ccc(N4CCNCC4)cn3)nc2n(C2CCCC2)c1=O + CC(Nc1ncnc2nc[nH]c12)c1cc2cccc(Cl)c2c(=O)n1-c1ccccc1", "Result": 100}
{"Molecule": "Cn1ncnc1[C@H]1c2n[nH]c(=O)c3cc(F)cc(c23)N[C@@H]1c1ccc(F)cc1 + Cc1nc(NC(=O)N2CCCC2C(N)=O)sc1-c1ccnc(C(C)(C)C(F)(F)F)c1", "Result": 81.8}

Turning now to a further molecule:
// lookup viability, T/C | system=361931-004-R-J1-PDC multicell spheroid viability | key= CC(=O)c1c(C)c2cnc(Nc3ccc(N4CCNCC4)cn3)nc2n(C2CCCC2)c1=O + Cc1nc(NC(=O)N2CCCC2C(N)=O)sc1-c1ccnc(C(C)(C)C(F)(F)F)c1;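 note: spheroids exposed to agents for seven days before readout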
70.6

Reference source: PubChem BioAssay AID1963979
